The reported numbers originate from ChEMBL document CHEMBL4261646.

Test: Competitive-inhibition of fructose-bisphosphate aldolase (unknown origin) using FBP as substrate and […] in presence of constant enzyme concentration by UV-Vis spectrophotometry dependent TIM/GDH coupled assay based double-reciprocal plot analysis
Set-up: species or system Homo sapiens
Entries and their pKi values follow.
Expect pKi as a plain number equal to -log10 of the molar concentration.

O=P(O)(O)Oc1ccc(C(P(=O)(O)O)P(=O)(O)O)cc1
4.38

Consider the record given below.
If you can, please state the reported pKi value of `O=P(O)(O)Oc1ccc2cc(OP(=O)(O)O)ccc2c1` .
6.55

* * *

Assay: Inhibition of fructose-bisphosphate aldolase (unknown origin)
Set-up: species or system Homo sapiens
READOUT_LABEL: pKi
Expect pKi as a plain number equal to -log10 of the molar concentration.

If you can, please state the reported pKi value of `O=P(O)(O)Oc1ccc2cc(OP(=O)(O)O)ccc2c1` .
6.55

* * *

Assay: Inhibition of rabbit muscle fructose-bisphosphate aldolase using FBP as substrate and NADH by spectrophotometry based coupled enzyme assay
Parameters: species or system Oryctolagus cuniculus
READOUT_LABEL: Ki (µM)
Report the figure in µM without appending any unit label.

If you can, please state the reported Ki value of `O=C(COP(=O)(O)O)[C@@H](O)[C@@H](O)[C@H](O)COP(=O)(O)O` .
120
